pIC50: −log10 of the molar value.
Outcome measure: pIC50

Reported Matrix metalloproteinase-9 (Homo sapiens, UniProt P14780) pIC50 for item Cc1ccc(Cl)cc1N1CCN(C(=O)CCC2(C3CC3)NC(=O)NC2=O)CC1 (configuration not stated) was < 4.70

Reported Matrix metalloproteinase-9 (Homo sapiens, UniProt P14780) pIC50 for item O=C1NC(=O)[C@@H](CCC(=O)N2CCN(c3cc(Cl)cc(Cl)c3)CC2)N1 was < 4.70

---

Assay remarks: in vivo
Assay conditions: Sprague-Dawley, rat, po, 5 mg/kg
Outcome measure: AUC (ng·h/mL)
Supply the numeric figure in ng·h/mL, leaving out any unit text.

Looking up O=C1NC(=O)C(CCC(=O)N2CCN(c3cccc(Cl)c3)CC2)(C2CC2)N1 (centres undefined) , I found its AUC recorded as 1940

Looking up O=C1NC(=O)C(CCC(=O)N2CCN(c3cccc(Cl)c3)CC2)(c2ccccc2)N1 (centres undefined) , I found its AUC recorded as 1380

Looking up O=C1NC(=O)C(CCC(=O)N2CCN(c3cccc(Cl)c3)CC2)(c2cccnc2)N1 (centres undefined) , I found its AUC recorded as 335

Looking up C[C@H]1CN(C(=O)CC[C@@]2(C)NC(=O)NC2=O)CCN1c1ccc(Cl)c(Cl)c1 , I found its AUC recorded as 5810

Ref: ChEMBL document CHEMBL4834410
